# ASSAY_EXPLANATION: Resveratrol concentration in mouse plasma after oral administration in diet (HPLC)
# Format: in vivo, mouse (Female Mice Strain A)
# DETAILS: plasma, po, 3000 mg/kg diet, 6 weeks, n=5
OBSERVATION_TYPE: concentration at 1008 h

input: Return reported concentration at 1008 h; argument: Oc1ccc(C=Cc2cc(O)cc(O)c2)cc1 [resveratrol, 3,5,4'-trihydroxy stilbene]
output: 447 ng/mL

---

# ASSAY_EXPLANATION: Resveratrol concentration in mouse plasma after oral administration in diet (HPLC)
# Assay type: in vivo, mouse (Female Mice Strain A)
# DETAILS: plasma, po, 250 mg/kg diet, 6 weeks, n=4
OBSERVATION_TYPE: concentration at 1008 h (ng/mL)
Output spec: scalar in ng/mL, unitless text.

input: Item Oc1ccc(C=Cc2cc(O)cc(O)c2)cc1 [resveratrol, 3,5,4'-trihydroxy stilbene] has what recorded concentration at 1008 h?
output: 87.9

---

# ASSAY_EXPLANATION: Resveratrol concentration in mouse plasma after oral administration in diet (HPLC)
# Type: in vivo, mouse (Female Mice Strain A)
# DETAILS: plasma, po, 500 mg/kg diet, 6 weeks, n=5
OBSERVATION_TYPE: concentration at 1008 h (ng/mL)
Entry rule: numbers only, all in ng/mL.

input: Entry under review: Oc1ccc(C=Cc2cc(O)cc(O)c2)cc1 [resveratrol, 3,5,4'-trihydroxy stilbene] . Reported concentration at 1008 h?
output: 56.8

---

# ASSAY_EXPLANATION: Resveratrol concentration in mouse plasma after oral administration in diet (HPLC)
# Format: in vivo, mouse (Female Mice Strain A)
# DETAILS: plasma, po, 2000 mg/kg diet, 6 weeks, n=5
OBSERVATION_TYPE: concentration at 1008 h

input: Please report the recorded concentration at 1008 h for Oc1ccc(C=Cc2cc(O)cc(O)c2)cc1 [resveratrol, 3,5,4'-trihydroxy stilbene] .
output: 0.178 µg/mL

Every entry's value here was drawn from patent US6022901A.
